Cited source for all entries: paper PMC11161652

- EXPERIMENTAL_TARGET: T1, PHD2 and PHD3 fingers of human MLL4 (aa 227-324) (human, UniProt O14686 227-324)
- T1 construct: PHD2 and PHD3 fingers of human MLL4 (KMT2D), aa 227-324; also called MLL4_(PHD2/3); MLL4 PHD2/3; source: E. coli BL21-CodonPlus, purified (glutathione agarose, PreScission cleavage; unlabeled proteins also SEC)
- T1 sequence (looked up): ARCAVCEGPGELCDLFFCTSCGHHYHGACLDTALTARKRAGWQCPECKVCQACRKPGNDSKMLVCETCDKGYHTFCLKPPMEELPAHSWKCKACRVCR
- METHOD_SUMMARY: not stated; fluorescence spectroscopy or NMR: the legends of Fig. 3c and Fig. 4b say that values marked (a) are from NMR and the others from fluorescence; the text does not tell which for these pairs
- CONDITION_CONTEXT: both partners purified
ASSAY_READOUT: Kd (µM)
Number only, in µM; omit the unit.

Give a short answer stating reported Kd for NRTGARTLADEKAKAQLVKAQ (peptide, UniProt Q76L83 650-670, looked up, ASXL2, residues 650-670; also called I660E mutant of ASXL2; source: synthetic peptide (SynPeptide)) [ASXL2 peptide (aa 650-670) I660E] .
1100
